Value source: patent US9566312B2

Target: UniProtKB Q9Y6L6
Sequence (Q9Y6L6 whole entry): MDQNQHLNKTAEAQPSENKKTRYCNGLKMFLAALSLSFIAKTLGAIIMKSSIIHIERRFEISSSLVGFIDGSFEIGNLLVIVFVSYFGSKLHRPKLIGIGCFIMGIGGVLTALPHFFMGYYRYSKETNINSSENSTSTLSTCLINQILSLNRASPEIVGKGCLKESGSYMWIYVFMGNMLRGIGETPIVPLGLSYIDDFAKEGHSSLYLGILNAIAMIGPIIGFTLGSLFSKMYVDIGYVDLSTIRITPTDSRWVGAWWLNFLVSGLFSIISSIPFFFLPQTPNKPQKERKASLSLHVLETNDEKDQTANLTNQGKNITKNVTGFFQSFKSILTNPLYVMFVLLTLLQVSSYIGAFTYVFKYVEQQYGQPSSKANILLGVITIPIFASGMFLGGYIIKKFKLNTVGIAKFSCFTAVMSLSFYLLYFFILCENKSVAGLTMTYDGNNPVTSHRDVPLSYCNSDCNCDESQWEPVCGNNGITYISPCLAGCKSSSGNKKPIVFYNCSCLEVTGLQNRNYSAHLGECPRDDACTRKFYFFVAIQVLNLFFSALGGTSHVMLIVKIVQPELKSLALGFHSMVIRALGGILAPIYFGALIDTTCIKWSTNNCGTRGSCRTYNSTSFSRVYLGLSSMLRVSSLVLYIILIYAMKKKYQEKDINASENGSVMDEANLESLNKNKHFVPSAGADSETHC
Experiment: OATP assay in CHO-OATP1B1 cells;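 note: inhibition of probe substrate uptake into the cells, ten minutes exposure, accumulated substrate read by fluorescence once cells were lysed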
Starred links: 1 amine or outer side, 2 acyl side, 3 side chain; linkers in the order of their positions; H or OH if unused. Non-standard residues stand in square brackets, D forms with d. Residues, ends and D or L forms follow the SMILES beside them. X31 = C[C@H](CN1C[C@H](C)OC[C@@H]1C)[C@@H](C(=O)[*:2])N(C)[*:1]; X49 = C[C@H](CCC(=O)N1CCN(C)CC1)[C@@H](C(=O)[*:2])N(C)[*:1]; X41 = CC(C)N1CCN(C[C@@H](C)[C@@H](C(=O)[*:2])N(C)[*:1])CC1; X8 = COCCN1CCN(C[C@@H](C)[C@@H](C(=O)[*:2])N(C)[*:1])CC1; X21 = CCN1CCN(C[C@@H](C)[C@@H](C(=O)[*:2])N(C)[*:1])CC1; X71 = COC1CN(CC[C@@H](C)[C@@H](C(=O)[*:2])N(C)[*:1])C1; X4 = C[C@H](CS(C)(=O)=O)[C@@H](C(=O)[*:2])N(C)[*:1]; MeBmt = C/C=C/C[C@@H](C)[C@@H](O)[C@H](NC)C(=O)O; NMeL = CN[C@@H](CC(C)C)C(=O)O; NMeV = CN[C@H](C(=O)O)C(C)C; dNMeA = CN[C@H](C)C(=O)O; Abu = CC[C@H](N)C(=O)O
Hi there, I'd appreciate the recorded IC50 for every entry that follows.

Prompt: Please report the measured IC50 for C/C=C/C[C@@H](C)[C@@H](O)[C@H]1C(=O)N[C@@H](CC)C(=O)N(C)[C@H](CCCO)C(=O)N(C)[C@@H]([C@H](C)CS(C)(=O)=O)C(=O)N[C@@H](C(C)C)C(=O)N(C)[C@@H](CC(C)C)C(=O)N[C@@H](C)C(=O)N[C@H](C)C(=O)N(C)[C@@H](CC(C)C)C(=O)N(C)[C@@H](CC(C)C)C(=O)N(C)[C@@H](C(C)C)C(=O)N1C (stereo in doubt) [Compound 3.4.1]
Completion: 2700 nM

Prompt: Specify measured IC50 for C/C=C/C[C@@H](C)[C@@H](O)[C@H]1C(=O)N[C@@H](CC)C(=O)N(C)[C@H](C)C(=O)N(C)[C@@H]([C@H](C)CCC(=O)N2CCN(C)CC2)C(=O)N[C@@H](C(C)C)C(=O)N(C)[C@@H](CC(C)C)C(=O)N[C@@H](C)C(=O)N[C@H](C)C(=O)N(C)[C@@H](CC(C)C)C(=O)N(C)[C@@H](CC(C)C)C(=O)N(C)[C@@H](C(C)C)C(=O)N1C [Compound 2.14.3] (cyclo(A[dA][NMeL][NMeL][NMeV][MeBmt][Abu][dNMeA][X49]V[NMeL])) .
Completion: 5400 nM

Prompt: Answer with the recorded IC50 for the compound listed here: C/C=C/C[C@@H](C)[C@@H](O)[C@H]1C(=O)N[C@@H](CC)C(=O)N(C)[C@H](C)C(=O)N(C)[C@@H]([C@H](C)CS(C)(=O)=O)C(=O)N[C@@H](C(C)C)C(=O)N(C)[C@@H](CC(C)C)C(=O)N[C@@H](C)C(=O)N[C@H](C)C(=O)N(C)[C@@H](CC(C)C)C(=O)N(C)[C@@H](CC(C)C)C(=O)N(C)[C@@H](C(C)C)C(=O)N1C [Compound 2.4] (cyclo(A[dA][NMeL][NMeL][NMeV][MeBmt][Abu][dNMeA][X4]V[NMeL]))
Completion: 1400 nM

Prompt: Tell me its IC50 given C/C=C/C[C@@H](C)[C@@H](O)[C@H]1C(=O)N[C@@H](CC)C(=O)N(C)[C@H](C)C(=O)N(C)[C@@H]([C@H](C)CCN2CC(OC)C2)C(=O)N[C@@H](C(C)C)C(=O)N(C)[C@@H](CC(C)C)C(=O)N[C@@H](C)C(=O)N[C@H](C)C(=O)N(C)[C@@H](CC(C)C)C(=O)N(C)[C@@H](CC(C)C)C(=O)N(C)[C@@H](C(C)C)C(=O)N1C [Compound 2.18.5] (cyclo(A[dA][NMeL][NMeL][NMeV][MeBmt][Abu][dNMeA][X71]V[NMeL])) as the entry.
Completion: 1400 nM

Prompt: Tell us which IC50 value is on record for C/C=C/C[C@@H](C)[C@@H](O)[C@H]1C(=O)N[C@@H](CC)C(=O)N(C)[C@H](C)C(=O)N(C)[C@@H]([C@H](C)CN2C[C@H](C)OC[C@@H]2C)C(=O)N[C@@H](C(C)C)C(=O)N(C)[C@@H](CC(C)C)C(=O)N[C@@H](C)C(=O)N[C@H](C)C(=O)N(C)[C@@H](CC(C)C)C(=O)N(C)[C@@H](CC(C)C)C(=O)N(C)[C@@H](C(C)C)C(=O)N1C [Compound 2.5.6] (cyclo(A[dA][NMeL][NMeL][NMeV][MeBmt][Abu][dNMeA][X31]V[NMeL]))
Completion: 2600 nM

Prompt: Name the recorded IC50 of the compound listed here: C/C=C/C[C@@H](C)[C@@H](O)[C@H]1C(=O)N[C@@H](CC)C(=O)N(C)[C@H](C)C(=O)N(C)[C@@H]([C@H](C)CN2CCN(CCOC)CC2)C(=O)N[C@@H](C(C)C)C(=O)N(C)[C@@H](CC(C)C)C(=O)N[C@@H](C)C(=O)N[C@H](C)C(=O)N(C)[C@@H](CC(C)C)C(=O)N(C)[C@@H](CC(C)C)C(=O)N(C)[C@@H](C(C)C)C(=O)N1C [Compound 2.5.10] (cyclo([MeBmt][Abu][dNMeA][X8]V[NMeL]A[dA][NMeL][NMeL][NMeV]))
Completion: 6100 nM

Prompt: // Input: C/C=C/C[C@@H](C)[C@@H](O)[C@H]1C(=O)N[C@@H](CC)C(=O)N(C)[C@H](C)C(=O)N(C)[C@@H]([C@H](C)CN2CCN(C(C)C)CC2)C(=O)N[C@@H](C(C)C)C(=O)N(C)[C@@H](CC(C)C)C(=O)N[C@@H](C)C(=O)N[C@H](C)C(=O)N(C)[C@@H](CC(C)C)C(=O)N(C)[C@@H](CC(C)C)C(=O)N(C)[C@@H](C(C)C)C(=O)N1C [Compound 2.5.12] (cyclo(A[dA][NMeL][NMeL][NMeV][MeBmt][Abu][dNMeA][X41]V[NMeL])) . Output its IC50 only.
Completion: 2440 nM

Prompt: Identify IC50 associated with the compound C/C=C/C[C@@H](C)[C@@H](O)[C@H]1C(=O)N[C@@H](CC)C(=O)N(C)[C@H](CC)C(=O)N(C)[C@@H]([C@H](C)COC)C(=O)N[C@@H](C(C)C)C(=O)N(C)[C@@H](CC(C)C)C(=O)N[C@@H](C)C(=O)N[C@H](C)C(=O)N(C)[C@@H](CC(C)C)C(=O)N(C)[C@@H](CC(C)C)C(=O)N(C)[C@@H](C(C)C)C(=O)N1C [Compound 3.1]
Completion: 2100 nM

Prompt: Return reported IC50. Input compound: C/C=C/C[C@@H](C)[C@@H](O)[C@H]1C(=O)N[C@@H](CC)C(=O)N(C)[C@H](C)C(=O)N(C)[C@@H]([C@H](C)CN2CCN(CC)CC2)C(=O)N[C@@H](C(C)C)C(=O)N(C)[C@@H](CC(C)C)C(=O)N[C@@H](C)C(=O)N[C@H](C)C(=O)N(C)[C@@H](CC(C)C)C(=O)N(C)[C@@H](CC(C)C)C(=O)N(C)[C@@H](C(C)C)C(=O)N1C [Compound 2.5.13] (cyclo(A[dA][NMeL][NMeL][NMeV][MeBmt][Abu][dNMeA][X21]V[NMeL]))
Completion: 4560 nM
